Test system: Escherichia coli TOP10
assay-notes: shrunken log2 fold change of peptide-encoding DNA abundance (4.5 h post-induction vs induction); higher = less antimicrobial activity (less host growth inhibition)
test-parameters: time post-induction: 4.5 h; library: site-saturation at positions 5, 18, 19, 20
sequences and their reported shrunken log2 fold change
Output: the number by itself.

Q: What measured shrunken log2 fold change goes with RRIRIRPPRLPRPRPRPSYTPRP ?
Ans: -1.06

Q: # input sequence: RRIRGRPPRLPRPRPRPFYHPRP ; wanted: its shrunken log2 fold change
Ans: -0.102

Q: Value lookup for shrunken log2 fold change; key = RRIRPRPPRLPRPRPRPAWGPRP
Ans: 0.503

Q: Given the sequence RRIRSRPPRLPRPRPRPARRPRP , what is its reported shrunken log2 fold change?
Ans: 0.0588

Q: Using the record for RRIRVRPPRLPRPRPRPAIPPRP , report its shrunken log2 fold change.
Ans: -0.356

Q: Would you kindly share the measured shrunken log2 fold change for RRIRARPPRLPRPRPRPFRAPRP ?
Ans: 0.0497

Q: Entry under review: RRIRNRPPRLPRPRPRPYIPPRP . Reported shrunken log2 fold change?
Ans: -0.36

Q: Reported shrunken log2 fold change, sequence RRIRDRPPRLPRPRPRPNSFPRP : ____
Ans: -0.0585

Q: What does the record list as shrunken log2 fold change for RRIRPRPPRLPRPRPRPTFFPRP ?
Ans: 0.212

Q: Find the recorded shrunken log2 fold change belonging to RRIRDRPPRLPRPRPRPCGGPRP and report it.
Ans: 0.132

Next:
Q: Recorded shrunken log2 fold change for RRIRERPPRLPRPRPRPHAFPRP , please?
Ans: -0.0188

Q: Suppose we examine the sequence RRIRTRPPRLPRPRPRPFCRPRP ; what shrunken log2 fold change value has been reported?
Ans: -0.0976

Q: Record request: shrunken log2 fold change value, item RRIRRRPPRLPRPRPRPYETPRP
Ans: 0.119

Q: shrunken log2 fold change for RRIRTRPPRLPRPRPRPCKKPRP ?
Ans: -0.0502

Q: Entry RRIRDRPPRLPRPRPRPKHWPRP : reported shrunken log2 fold change = ?
Ans: 0.723

* * *

Quick reference for shrunken log2 fold change among some sequences
System: Escherichia coli TOP10
assay-notes: shrunken log2 fold change of peptide-encoding DNA abundance (4.5 h post-induction vs induction); higher = less antimicrobial activity (less host growth inhibition)
test-parameters: time post-induction: 4.5 h; library: site-saturation at positions 5, 18, 19, 20
I'd appreciate a reply containing only the number, no unit.

Q: Give the reported shrunken log2 fold change for RRIRIRPPRLPRPRPRPFQNPRP (system: Escherichia coli TOP10).
Ans: -0.296

Q: Observed shrunken log2 fold change on Escherichia coli TOP10 for RRIRDRPPRLPRPRPRPEREPRP , please.
Ans: -0.0248

Q: API: value(readout= shrunken log2 fold change, system= Escherichia coli TOP10, query= RRIRHRPPRLPRPRPRPQSCPRP )
Ans: -0.0062

Q: API: value(readout=shrunken log2 fold change, system=Escherichia coli TOP10) for record RRIRNRPPRLPRPRPRPSGLPRP
Ans: 0.0284

Q: API: value(readout= shrunken log2 fold change, system= Escherichia coli TOP10, query= RRIRYRPPRLPRPRPRPFVCPRP )
Ans: -0.0345

Others:
Q: Escherichia coli TOP10 / shrunken log2 fold change / RRIRERPPRLPRPRPRPTEPPRP : value?
Ans: 0.0207

Q: Write down the reported shrunken log2 fold change of RRIRWRPPRLPRPRPRPIVCPRP , test system: Escherichia coli TOP10.
Ans: 0.0105

Q: Any idea what shrunken log2 fold change came out for RRIRCRPPRLPRPRPRPAWFPRP on Escherichia coli TOP10?
Ans: 0.194

* * *

Measured shrunken log2 fold change by item
System: Escherichia coli TOP10
assay-notes: shrunken log2 fold change of peptide-encoding DNA abundance (4.5 h post-induction vs induction); higher = less antimicrobial activity (less host growth inhibition)
test-parameters: time post-induction: 4.5 h; library: site-saturation at positions 5, 18, 19, 20
Kindly provide the number alone.

// below: answered sequences
Q: Entry under review: RRIRHRPPRLPRPRPRPSKLPRP . Reported shrunken log2 fold change?
Ans: -0.448

Q: Record request: shrunken log2 fold change value, item RRIRPRPPRLPRPRPRPTDKPRP
Ans: 0.0429

Q: Given RRIRGRPPRLPRPRPRPEYQPRP , state its recorded shrunken log2 fold change.
Ans: 0.416

Q: Using the record for RRIRYRPPRLPRPRPRPTWPPRP , report its shrunken log2 fold change.
Ans: 0.183

Q: Need shrunken log2 fold change of RRIRCRPPRLPRPRPRPWQPPRP , thanks.
Ans: 0.0636

Others:
Q: Given the entry RRIRHRPPRLPRPRPRPVDHPRP , report its measured shrunken log2 fold change.
Ans: -0.0462

Q: Consider the sequence RRIRQRPPRLPRPRPRPGMNPRP and give its measured shrunken log2 fold change.
Ans: 0.0205

Q: Using the record for RRIRRRPPRLPRPRPRPGRYPRP , report its shrunken log2 fold change.
Ans: 0.218

* * *

Reported shrunken log2 fold change values for the following sequences.
Test system: Escherichia coli TOP10
assay-notes: shrunken log2 fold change of peptide-encoding DNA abundance (4.5 h post-induction vs induction); higher = less antimicrobial activity (less host growth inhibition)
test-parameters: time post-induction: 4.5 h; library: site-saturation at positions 5, 18, 19, 20
Write the value as a bare number.

Q: Fill in the blank: the reported shrunken log2 fold change of RRIRRRPPRLPRPRPRPVPIPRP is ____.
Ans: 0.137

Others:
Q: // query shrunken log2 fold change value for entry RRIRVRPPRLPRPRPRPPYWPRP
Ans: 0.121

Q: Need shrunken log2 fold change of RRIRIRPPRLPRPRPRPVWPPRP , thanks.
Ans: 0.0939

Q: Fill blank: measured shrunken log2 fold change of the sequence RRIRYRPPRLPRPRPRPFSMPRP is ____.
Ans: -0.00208

Q: # input sequence: RRIRQRPPRLPRPRPRPIIKPRP ; wanted: its shrunken log2 fold change
Ans: -0.111

Q: Look up shrunken log2 fold change for this sequence: RRIRKRPPRLPRPRPRPRDDPRP
Ans: 0.365

Q: What value of shrunken log2 fold change has been reported for the following sequence? RRIRIRPPRLPRPRPRPRWIPRP
Ans: -0.0611

Q: Which shrunken log2 fold change is reported for this sequence? RRIRDRPPRLPRPRPRPWIKPRP
Ans: 0.00902

* * *

System: Escherichia coli TOP10;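 further: peptides expressed intracellularly from a pBAD plasmid library in pooled LB shake-flask culture, induced with 0.3% L-arabinose, DNA abundance read by NGS, three biological replicates, DESeq2 with apeglm shrinkage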
assay-notes: shrunken log2 fold change of peptide-encoding DNA abundance (4.5 h post-induction vs induction); higher = less antimicrobial activity (less host growth inhibition)
test-parameters: time post-induction: 4.5 h; library: site-saturation at positions 5, 18, 19, 20
Entry class follows shrunken log2 fold change: low bracket (below -0.1), middle bracket (-0.1 to below 0.09), high bracket (0.09 or more)

Past entries and their recorded results:
Q: Exercise: read the entry RRIRHRPPRLPRPRPRPVNDPRP and state which class it falls under.
Ans: middle bracket

Q: Form field 'band' for RRIRPRPPRLPRPRPRPCCLPRP
Ans: low bracket

Q: Band for the recorded shrunken log2 fold change of RRIRSRPPRLPRPRPRPAWKPRP ?
Ans: high bracket

Q: Would you mind sorting RRIRFRPPRLPRPRPRPQSEPRP into the appropriate category?
Ans: middle bracket

Q: Sort into band: RRIRWRPPRLPRPRPRPRVCPRP
Ans: high bracket

Q: Please report the category associated with RRIRERPPRLPRPRPRPSNPPRP , nothing else.
Ans: low bracket

Q: Class for RRIRPRPPRLPRPRPRPAYPPRP ?
Ans: middle bracket

Q: Which bin, given its shrunken log2 fold change, does RRIRTRPPRLPRPRPRPADTPRP occupy?
Ans: low bracket

New cases:
Q: Category of RRIRPRPPRLPRPRPRPKHDPRP , please.
Ans: middle bracket

Q: Please report the category associated with RRIRPRPPRLPRPRPRPHHYPRP , nothing else.
Ans: low bracket

Q: Category of RRIRRRPPRLPRPRPRPAHDPRP , please.
Ans: high bracket

Q: Band of RRIRPRPPRLPRPRPRPPNLPRP ?
Ans: middle bracket

Q: Band of RRIRERPPRLPRPRPRPTHCPRP ?
Ans: low bracket

Q: Entry RRIRRRPPRLPRPRPRPQCTPRP belongs to which category?
Ans: low bracket

Q: State the band of RRIRLRPPRLPRPRPRPSYRPRP
Ans: low bracket

Q: Dear colleague, I would appreciate it if you could identify the bin for RRIRTRPPRLPRPRPRPLNYPRP and reply at your convenience.
Ans: low bracket

Q: Please indicate the class for RRIRMRPPRLPRPRPRPETWPRP based on its shrunken log2 fold change.
Ans: high bracket

Q: Category of RRIRIRPPRLPRPRPRPEWCPRP , please.
Ans: middle bracket

Q: Into which category would you place RRIRYRPPRLPRPRPRPWVTPRP ?
Ans: low bracket

Q: Which band does RRIRRRPPRLPRPRPRPHSIPRP fall in?
Ans: middle bracket

// data source = the supplement of paper PMC9112550
